Experiment: Multiple-dose PK, 2-hour SC infusion once daily for 14 days, Japanese prostate cancer patients
Type: in vivo, human
Details: male, human, in vivo, sc, 0.5 mg/day, Japanese prostate cancer patients, 2-hour SC infusion 0.5 mg/day, Day 1, mean
Where a SMILES comes first, the peptide text is derived from it. [ ]: non-standard residue; d: D form. Arg(Me) = CNC(=N)NCCC[C@H](N)C(=O)O; Hyp = O=C(O)[C@@H]1C[C@@H](O)CN1; azaGly = NNC(=O)O
Reported endpoint: Cmax

Compound	Test result
CC(=O)O.CNC(=N)NCCC[C@H](NC(=O)[C@H](CC(C)C)NC(=O)NNC(=O)[C@H](Cc1ccccc1)NC(=O)[C@@H](NC(=O)[C@H](CC(N)=O)NC(=O)[C@@H]1C[C@@H](O)CN1C(=O)[C@@H](Cc1ccc(O)cc1)NC(C)=O)[C@@H](C)O)C(=O)N[C@@H](Cc1c[nH]c2ccccc12)C(N)=O [API-MA] (Ac-[dY][Hyp]NTF[azaGly]L[Arg(Me)]W-NH2)	8.12 ng/mL

###

Assay: Multiple-dose PK, SC bolus then continuous 13-day SC infusion, healthy European men
Settings: male, human, plasma, sc, 0.1 mg, Cmax, European men, SC bolus 0.1 mg on Day 1, dosing group 0.3 mg/day, geometric mean (% CV)
Where a SMILES comes first, the peptide text is derived from it. [ ]: non-standard residue; d: D form. Arg(Me) = CNC(=N)NCCC[C@H](N)C(=O)O; Hyp = O=C(O)[C@@H]1C[C@@H](O)CN1; azaGly = NNC(=O)O

Compound	Cmax
CC(=O)O.CNC(=N)NCCC[C@H](NC(=O)[C@H](CC(C)C)NC(=O)NNC(=O)[C@H](Cc1ccccc1)NC(=O)[C@@H](NC(=O)[C@H](CC(N)=O)NC(=O)[C@@H]1C[C@@H](O)CN1C(=O)[C@@H](Cc1ccc(O)cc1)NC(C)=O)[C@@H](C)O)C(=O)N[C@@H](Cc1c[nH]c2ccccc12)C(N)=O [API-MA] (Ac-[dY][Hyp]NTF[azaGly]L[Arg(Me)]W-NH2)	1.65 ng/mL

###

Assay: Single dose PK, phase 1, healthy European men
Assay type: in vivo, human
Details: male, human, plasma, subcutaneous, 2-hour INF 6 mg, geometric mean
Where a SMILES comes first, the peptide text is derived from it. [ ]: non-standard residue; d: D form. Arg(Me) = CNC(=N)NCCC[C@H](N)C(=O)O; Hyp = O=C(O)[C@@H]1C[C@@H](O)CN1; azaGly = NNC(=O)O
Reported endpoint: Cmax

Molecule	Test result
CC(=O)O.CNC(=N)NCCC[C@H](NC(=O)[C@H](CC(C)C)NC(=O)NNC(=O)[C@H](Cc1ccccc1)NC(=O)[C@@H](NC(=O)[C@H](CC(N)=O)NC(=O)[C@@H]1C[C@@H](O)CN1C(=O)[C@@H](Cc1ccc(O)cc1)NC(C)=O)[C@@H](C)O)C(=O)N[C@@H](Cc1c[nH]c2ccccc12)C(N)=O [API-MA] (Ac-[dY][Hyp]NTF[azaGly]L[Arg(Me)]W-NH2)	82.5 ng/mL

###

Experiment: Multiple-dose PK, 2-hour SC infusion once daily for 14 days, Japanese prostate cancer patients
Assay type: in vivo, human
Settings: male, human, in vivo, sc, 1 mg/day, Japanese prostate cancer patients, 2-hour SC infusion 1.0 mg/day, Day 14, mean; read-out: Vz/F
Where a SMILES comes first, the peptide text is derived from it. [ ]: non-standard residue; d: D form. Arg(Me) = CNC(=N)NCCC[C@H](N)C(=O)O; Hyp = O=C(O)[C@@H]1C[C@@H](O)CN1; azaGly = NNC(=O)O
Reported endpoint: Vd/F (L)

Molecule	Test result
CC(=O)O.CNC(=N)NCCC[C@H](NC(=O)[C@H](CC(C)C)NC(=O)NNC(=O)[C@H](Cc1ccccc1)NC(=O)[C@@H](NC(=O)[C@H](CC(N)=O)NC(=O)[C@@H]1C[C@@H](O)CN1C(=O)[C@@H](Cc1ccc(O)cc1)NC(C)=O)[C@@H](C)O)C(=O)N[C@@H](Cc1c[nH]c2ccccc12)C(N)=O [API-MA] (Ac-[dY][Hyp]NTF[azaGly]L[Arg(Me)]W-NH2)	65.7

###

Assay: Single dose PK, phase 1, healthy Japanese men
Assay type: in vivo, human
Conditions: male, human, plasma, sc, 0.004 mg, single SC bolus 0.004 mg, read-out: Tmax, median (range)
Where a SMILES comes first, the peptide text is derived from it. [ ]: non-standard residue; d: D form. Arg(Me) = CNC(=N)NCCC[C@H](N)C(=O)O; Hyp = O=C(O)[C@@H]1C[C@@H](O)CN1; azaGly = NNC(=O)O

Compound	Tmax (min)
CC(=O)O.CNC(=N)NCCC[C@H](NC(=O)[C@H](CC(C)C)NC(=O)NNC(=O)[C@H](Cc1ccccc1)NC(=O)[C@@H](NC(=O)[C@H](CC(N)=O)NC(=O)[C@@H]1C[C@@H](O)CN1C(=O)[C@@H](Cc1ccc(O)cc1)NC(C)=O)[C@@H](C)O)C(=O)N[C@@H](Cc1c[nH]c2ccccc12)C(N)=O [API-MA] (Ac-[dY][Hyp]NTF[azaGly]L[Arg(Me)]W-NH2)	30

###

Assay: Pharmacokinetics in monkeys after SC and IV administration
Settings: monkey, in vivo; monkeys, SC 0.1 mg/kg; read-out: Cmax
Where a SMILES comes first, the peptide text is derived from it. [ ]: non-standard residue; d: D form. Arg(Me) = CNC(=N)NCCC[C@H](N)C(=O)O; Hyp = O=C(O)[C@@H]1C[C@@H](O)CN1; azaGly = NNC(=O)O

Compound	Cmax / ng/mL
CC(=O)O.CNC(=N)NCCC[C@H](NC(=O)[C@H](CC(C)C)NC(=O)NNC(=O)[C@H](Cc1ccccc1)NC(=O)[C@@H](NC(=O)[C@H](CC(N)=O)NC(=O)[C@@H]1C[C@@H](O)CN1C(=O)[C@@H](Cc1ccc(O)cc1)NC(C)=O)[C@@H](C)O)C(=O)N[C@@H](Cc1c[nH]c2ccccc12)C(N)=O [API-MA] (Ac-[dY][Hyp]NTF[azaGly]L[Arg(Me)]W-NH2)	123

###

Assay: Single dose PK, phase 1, healthy European men
Type: in vivo, human
Details: male, human, plasma, subcutaneous, 2-hour INF 1 mg, geometric mean
Where a SMILES comes first, the peptide text is derived from it. [ ]: non-standard residue; d: D form. Arg(Me) = CNC(=N)NCCC[C@H](N)C(=O)O; Hyp = O=C(O)[C@@H]1C[C@@H](O)CN1; azaGly = NNC(=O)O
Reported endpoint: Cmax (ng/mL)

Molecule	Reported endpoint	Test result
CC(=O)O.CNC(=N)NCCC[C@H](NC(=O)[C@H](CC(C)C)NC(=O)NNC(=O)[C@H](Cc1ccccc1)NC(=O)[C@@H](NC(=O)[C@H](CC(N)=O)NC(=O)[C@@H]1C[C@@H](O)CN1C(=O)[C@@H](Cc1ccc(O)cc1)NC(C)=O)[C@@H](C)O)C(=O)N[C@@H](Cc1c[nH]c2ccccc12)C(N)=O [API-MA] (Ac-[dY][Hyp]NTF[azaGly]L[Arg(Me)]W-NH2)	Cmax	13.1

###

Assay: Single dose PK, phase 1, healthy European men
Format: in vivo, human
Details: male, human, plasma, subcutaneous, 2-hour INF 1 mg, geometric mean
Where a SMILES comes first, the peptide text is derived from it. [ ]: non-standard residue; d: D form. Arg(Me) = CNC(=N)NCCC[C@H](N)C(=O)O; Hyp = O=C(O)[C@@H]1C[C@@H](O)CN1; azaGly = NNC(=O)O

Compound	AUC(0-inf)
CC(=O)O.CNC(=N)NCCC[C@H](NC(=O)[C@H](CC(C)C)NC(=O)NNC(=O)[C@H](Cc1ccccc1)NC(=O)[C@@H](NC(=O)[C@H](CC(N)=O)NC(=O)[C@@H]1C[C@@H](O)CN1C(=O)[C@@H](Cc1ccc(O)cc1)NC(C)=O)[C@@H](C)O)C(=O)N[C@@H](Cc1c[nH]c2ccccc12)C(N)=O [API-MA] (Ac-[dY][Hyp]NTF[azaGly]L[Arg(Me)]W-NH2)	43.8 ng·h/mL

###

Test: Single dose PK, phase 1, healthy European men
Type: in vivo, human
Conditions: male, human, plasma, single SC 0.1 mg, read-out: Tmax (median)
Where a SMILES comes first, the peptide text is derived from it. [ ]: non-standard residue; d: D form. Arg(Me) = CNC(=N)NCCC[C@H](N)C(=O)O; Hyp = O=C(O)[C@@H]1C[C@@H](O)CN1; azaGly = NNC(=O)O

Molecule	Tmax, min
CC(=O)O.CNC(=N)NCCC[C@H](NC(=O)[C@H](CC(C)C)NC(=O)NNC(=O)[C@H](Cc1ccccc1)NC(=O)[C@@H](NC(=O)[C@H](CC(N)=O)NC(=O)[C@@H]1C[C@@H](O)CN1C(=O)[C@@H](Cc1ccc(O)cc1)NC(C)=O)[C@@H](C)O)C(=O)N[C@@H](Cc1c[nH]c2ccccc12)C(N)=O [API-MA] (Ac-[dY][Hyp]NTF[azaGly]L[Arg(Me)]W-NH2)	30
